Every entry's value here was drawn from PubChem BioAssay.

assay: MM1S myeloma cell viability, profiling panel, resazurin fluorescence, basal, 24 h, PK04 Diversity Set (AID 1174); settings: higher = more signal, called active from +8 up or from −8 down;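 note: MM1S multiple myeloma cell line; test concentration not given here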
Lab note: compare z-score against -0.6. Equal or greater, write satisfied. Smaller, write not satisfied.

Would you please look over these solved cases?
| molecule | classAssignment |
| --- | --- |
| O=C1NC(=O)C2C1C=CC(C(O)c1ccccn1)N2Nc1ccc(Cl)cc1Cl (centres undefined) | not satisfied |
| C=CCN1C(=O)[C@@]2(O[C@@H](CCO)[C@H]([Si](C)(C)c3ccc(OC)cc3)[C@H]2C)c2cc(N3CCOC3=O)ccc21 | not satisfied |
| C=C[C@@H](OC)[C@H](OC(=O)Nc1ccc(OC)cc1)c1ccc(OC)c(O)c1 | satisfied |
| COCC(=C=CC[C@@H](O)c1ccc(OCCO)cc1)CCO | satisfied |
| CCOC(=O)C=Cc1cc(F)ccc1O | not satisfied |
| CC(C)CNC(=O)[C@@H]1c2ccccc2C(=O)N(C2CCCCC2)[C@H]1c1ccc(CO)cc1 | satisfied |

### Prompt Check this molecule for z-score at or above -0.6: `C=C(COC)/C(=C/C[C@@H](OC(C)=O)c1ccc(CO)o1)c1cc(C(=O)OC)ccc1OC`
### Response satisfied

### Prompt Quick check: does `COc1cc(CO)cc(I)c1O[C@H]1C=C(C(=O)NCCO)C[C@@H](NCC2CCCCC2)[C@@H]1O` have z-score greater than or equal to -0.6?
### Response satisfied

### Prompt Answer whether z-score of `C=C(/C(=C/C[C@@H](OC(C)=O)c1ccc(CO)o1)c1cc(C(=O)OC)ccc1OC)C(C)C` is greater than or equal to -0.6.
### Response not satisfied

### Prompt Determine whether measured z-score meets or exceeds -0.6 for `COCCOC(=O)N1C(=O)[C@@]2(c3cc(C#CCNC(N)=O)ccc31)[C@H](c1ccc(OCCO)cc1)N1[C@H](c3ccccc3)[C@H](c3ccccc3)OC(=O)[C@H]1[C@@H]2C(N)=O`
### Response satisfied

### Prompt Textbook exercise: given the entry CC(CO)N1C(=O)[C@@H]2[C@H]3C(=O)OCC=C[C@H]3OC23C=CCN(c2ccc(Cl)cc2)C(=O)[C@@H]13 (some centres undefined) , state whether its z-score is greater than or equal to -0.6.
### Response satisfied

### Prompt Test whether the molecule `Cc1ccc(F)cc1S(=O)(=O)N[C@@H]1CCN(Cc2cccc3[nH]ccc23)C1` records z-score of -0.6 or higher.
### Response satisfied

### Prompt Does the molecule `CC(C)CNC(=O)[C@@]1(c2ccc([N+](=O)[O-])cc2)CC(=O)N(C2CCCCC2)[C@@H]1c1ccc(CO)cc1` have recorded z-score that is -0.6 or more?
### Response satisfied

### Prompt # bool: z-score of `O=C1O[C@H](c2ccccc2)[C@H](c2ccccc2)N2[C@H]1[C@@H](C(=O)Nc1nc3ccccc3s1)[C@]1(C(=O)Nc3ccc(C#CC4=CCCCC4)cc31)[C@H]2c1ccc(O)cc1` >= -0.6
### Response satisfied

### Prompt Can `CCc1cccc(NC(=O)O[C@H]2[C@H](OC(=O)Nc3ccccc3)[C@H](OC(=O)Nc3ccccc3)[C@@H](OC)O[C@@H]2CO)c1` be said to have z-score at or above -0.6?
### Response not satisfied

### Prompt Is reported z-score greater than or equal to -0.6 here: `CC(=O)NCCCC[C@@H]1NC(=O)[C@@H]2C[C@H](C(=O)NCCCCCCN)[C@H](c3cccc(OCCO)c3)N2C1=O`
### Response satisfied

### Prompt Check the entry `O=C1N[C@@H](Cc2ccccc2)C(=O)N2[C@@H]1C[C@@H](C(=O)O)[C@H]2c1ccc(O)cc1` : does z-score equal or exceed -0.6?
### Response satisfied

### Prompt Quick check: does CN1C(=O)C2C(C1=O)C1C=C(CCCO)C2C(C2CC2)N1Cc1cc2c(cc1Br)OCO2 (centres undefined) have z-score greater than or equal to -0.6?
### Response not satisfied

### Prompt Decide: is the reported value of z-score for `NC(=O)NCC#Cc1ccc2c(c1)[C@]1(C(=O)N2)[C@H](C(=O)N2CCN(c3ncccn3)CC2)[C@H]2C(=O)O[C@H](c3ccccc3)[C@H](c3ccccc3)N2[C@@H]1c1ccc(OCCO)cc1` equal to or greater than -0.6?
### Response satisfied

### Prompt Does the molecule COc1cc(NN2C(C(O)c3cc(OC)c(OC)c(OC)c3)C=CC3C(=O)N(c4ccccc4)C(=O)C32)cc(OC)c1OC (centres undefined) have recorded z-score that is -0.6 or more?
### Response not satisfied
